Target: NHE-1 (Homo sapiens, UniProt P19634)
Construct: endogenous in cells
Sequence (P19634 whole entry): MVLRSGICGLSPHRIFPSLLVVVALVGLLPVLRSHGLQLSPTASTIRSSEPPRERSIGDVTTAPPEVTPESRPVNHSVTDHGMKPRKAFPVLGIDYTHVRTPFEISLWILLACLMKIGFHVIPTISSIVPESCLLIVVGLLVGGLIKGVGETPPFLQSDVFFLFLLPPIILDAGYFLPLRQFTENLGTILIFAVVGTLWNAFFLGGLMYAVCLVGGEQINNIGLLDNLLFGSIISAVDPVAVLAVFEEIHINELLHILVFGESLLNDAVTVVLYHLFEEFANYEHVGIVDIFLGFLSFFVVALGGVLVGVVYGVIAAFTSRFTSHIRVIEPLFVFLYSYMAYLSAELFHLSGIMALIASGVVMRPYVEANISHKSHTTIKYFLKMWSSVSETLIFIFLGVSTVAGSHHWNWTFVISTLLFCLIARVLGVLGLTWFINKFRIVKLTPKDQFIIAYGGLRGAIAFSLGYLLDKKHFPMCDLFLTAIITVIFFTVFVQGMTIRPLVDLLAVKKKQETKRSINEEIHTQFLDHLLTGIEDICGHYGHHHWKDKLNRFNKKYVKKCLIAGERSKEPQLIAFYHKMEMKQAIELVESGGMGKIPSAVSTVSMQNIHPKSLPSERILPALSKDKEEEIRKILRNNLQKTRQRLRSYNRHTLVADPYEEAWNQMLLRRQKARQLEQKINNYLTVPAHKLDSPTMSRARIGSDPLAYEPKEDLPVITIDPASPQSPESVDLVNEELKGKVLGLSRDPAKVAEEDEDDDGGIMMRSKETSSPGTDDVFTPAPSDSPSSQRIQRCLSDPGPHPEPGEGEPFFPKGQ
Assay: Evaluation of NHE-1 Inhibition (pHi) in HT-29 cells
Conditions: BCECF dye, 50% inhibition of the intracellular pH recovery, read-out: NHE1 HT29 pHi IC50
pIC50: −log10 of the molar value.
OBSERVABLE: pIC50

Cc1cc(C(=O)N2CCC(c3ccc(C(=O)NC(=N)N)cc3C(F)(F)F)CC2)nn1C: 7.70
COCC(=O)N1CCC(c2cc(OC)c(C(=O)NC(=N)N)cc2C(F)(F)F)CC1: 8.05
N=C(N)NC(=O)c1ccc(C2CCN(C(=O)c3ccc(Cl)c(S(N)(=O)=O)c3)CC2)c(C(F)(F)F)c1: 7.89
N=C(N)NC(=O)c1ccc(C2CCN(C(=O)C3CCOCC3)CC2)c(C(F)(F)F)c1: 7.21
N=C(N)NC(=O)c1ccc(C2CCN(C(=O)c3cccc(S(=O)(=O)C(F)(F)F)c3)CC2)c(C(F)(F)F)c1: 6.55
Cn1cncc1C[C@H](N)C(=O)N1CCC(c2ccc(C(=O)NC(=N)N)cc2C(F)(F)F)CC1: 7.66

(1) N=C(N)NC(=O)c1ccc(C2CCN(C(=O)C(N)CC(N)=O)CC2)c(C(F)(F)F)c1 (stereo not shown)
(2) N=C(N)NC(=O)c1ccc(C2CCN(C(=O)c3ccccc3Cl)CC2)c(C(F)(F)F)c1
Between 1 and 2 , which one has the lower reported pIC50 value? Label of pick, please.
2

###

Molecular target: NHE-1 (Homo sapiens)
Construct: endogenous in cells
Test: Evaluation of NHE-1 Inhibition (pHi) in HT-29 cells
Conditions: BCECF dye, 50% inhibition of the intracellular pH recovery, read-out: NHE1 HT29 pHi IC50
OBSERVABLE: IC50 (nM)

N=C(N)NC(=O)c1ccc(C2CCN(C(=O)C3(N)CCC3)CC2)c(C(F)(F)F)c1: 31
CC(C)CC(=O)N1CCC(c2ccc(C(=O)NC(=N)N)cc2C(F)(F)F)CC1: 49

(1) CN(C)c1cccc(C(=O)N2CCC(c3ccc(C(=O)NC(=N)N)cc3C(F)(F)F)CC2)c1
(2) N=C(N)NC(=O)c1ccc(C2CCN(C(=O)c3ccco3)C2)c(C(F)(F)F)c1 (centres unmarked)
(3) Cc1cc(C2CCN(C(=O)c3ccc(=O)[nH]c3)CC2)c(C(F)(F)F)cc1C(=O)NC(=N)N
Output the entries ranked by IC50 from maximum down to minimum. Please list the labels in the order you were asked to rank them.
1, 3, 2
(1: 77 nM, 3: 30 nM, 2: 11 nM)

###

Biological target: NHE-1 (Homo sapiens, UniProt P19634)
Construct: endogenous in cells
Assay: Evaluation of NHE-1 Inhibition (pHi) in HT-29 cells
Conditions: BCECF dye, 50% inhibition of the intracellular pH recovery, read-out: NHE1 HT29 pHi IC50
OBSERVABLE: IC50 (nM)

Known IC50 results, listed for orientation:
N=C(N)NC(=O)c1ccc(C2CCN(C(=O)c3ccc(F)cc3C(F)(F)F)CC2)c(C(F)(F)F)c1: 350
CCC(=O)N1CCC(c2ccc(C(=O)NC(=N)N)cc2C(F)(F)F)CC1: 12

(A) N=C(N)NC(=O)c1ccc(C2CCN(C(=O)c3cccnc3)CC2)c(C(F)(F)F)c1
(B) N=C(N)NC(=O)c1ccc(C2CCN(C(=O)c3ccc4c(c3)OCCO4)CC2)c(C(F)(F)F)c1
(C) Cc1cc(C2CCN(C(=O)c3ccc4[nH]ccc4c3)CC2)c(C(F)(F)F)cc1C(=O)NC(=N)N
(D) CC(N)C(=O)N1CCC(c2ccc(C(=O)NC(=N)N)cc2C(F)(F)F)CC1 (stereo not drawn)
Rank the items in ascending order with respect to IC50. Arrange the labels as the request states and list them.
D, A, C, B
(D: 5 nM, A: 10 nM, C: 47 nM, B: 130 nM)

###

Biological target: NHE-1 (Homo sapiens, UniProt P19634)
Construct: endogenous in cells
Assay: Evaluation of NHE-1 Inhibition (pHi) in HT-29 cells
Conditions: BCECF dye, 50% inhibition of the intracellular pH recovery, read-out: NHE1 HT29 pHi IC50
OBSERVABLE: IC50 (nM)

COc1cc(C2CCN(C(=O)[C@@H](OC(C)=O)c3ccccc3)CC2)c(C(F)(F)F)cc1C(=O)NC(=N)N: 92
CC(C)(C)C(=O)N1CCC(c2ccc(C(=O)NC(=N)N)cc2C(F)(F)F)CC1: 68
N=C(N)NC(=O)c1ccc(C2CCN(C(=O)c3cnc4ccccc4c3)CC2)c(C(F)(F)F)c1: 70

###

Target: NHE-1 (Homo sapiens)
Construct: endogenous in cells
Assay: Evaluation of NHE-1 Inhibition (pHi) in HT-29 cells
Conditions: BCECF dye, 50% inhibition of the intracellular pH recovery, read-out: NHE1 HT29 pHi IC50
pIC50: −log10 of the molar value.
OBSERVABLE: pIC50

Below: 2 compounds and their reported pIC50.
CC(C)C(=O)N1CCC(c2ccc(C(=O)NC(=N)N)cc2C(F)(F)F)CC1: 7.60
Cn1cnc(C[C@@H](N)C(=O)N2CCC(c3ccc(C(=O)NC(=N)N)cc3C(F)(F)F)CC2)c1: 7.37

(a) N#Cc1ccccc1C(=O)N1CC=C(c2ccc(C(=O)NC(=N)N)cc2C(F)(F)F)CC1
(b) CNC(=O)c1ccc(C(=O)N2CCC(c3ccc(C(=O)NC(=N)N)cc3C(F)(F)F)CC2)cc1
(c) N=C(N)NC(=O)c1ccc(C2CCN(C(=O)Cn3ccnc3)CC2)c(C(F)(F)F)c1
(d) CCC(=O)N1CCC(c2ccc(C(=O)NC(=N)N)cc2S(C)(=O)=O)CC1
(e) N=C(N)NC(=O)c1ccc(C2CCN(C(=O)c3cncc(-c4ccc(F)cc4)c3)CC2)c(C(F)(F)F)c1
Sort the 5 compounds by pIC50; largest first, smallest last. Arrange the labels as the request states and list them.
c, d, b, a, e
(c: 8.22, d: 7.68, b: 7.37, a: 7.03, e: 6.73)

###

Target: NHE-1 (Homo sapiens)
Construct: endogenous in cells
Assay: Evaluation of NHE-1 Inhibition (pHi) in HT-29 cells
Details: BCECF dye, 50% inhibition of the intracellular pH recovery, read-out: NHE1 HT29 pHi IC50
OBSERVABLE: IC50 (nM)

CS(=O)(=O)c1cc(C(=O)NC(=N)N)ccc1C1CCN(C(=O)c2cccc(C#N)c2)CC1: 34
N=C(N)NC(=O)c1ccc(C2CCN(C(=O)C3CCN(c4ncccn4)CC3)CC2)c(C(F)(F)F)c1: 70
Cc1ccccc1C(=O)N1CCC(c2ccc(C(=O)NC(=N)N)cc2C(F)(F)F)CC1: 51
CN(C)CC(=O)N1CCC(c2ccc(C(=O)NC(=N)N)cc2C(F)(F)F)CC1: 5
Cc1cc(C2CCN(C(=O)C(C)(C)N)CC2)c(C(F)(F)F)cc1C(=O)NC(=N)N: 10
CC(=O)N1CCC(c2ccc(C(=O)NC(=N)N)cc2C(F)(F)F)CC1: 9
CS(=O)(=O)c1ccccc1C(=O)N1CCC(c2ccc(C(=O)NC(=N)N)cc2C(F)(F)F)CC1: 69
CC(C)(C)C(N)C(=O)N1CCC(c2ccc(C(=O)NC(=N)N)cc2C(F)(F)F)CC1 (centres unmarked): 16

(1) COc1cccc(C(=O)N2CCC(c3ccc(C(=O)NC(=N)N)cc3C(F)(F)F)CC2)c1
(2) N=C(N)NC(=O)c1ccc(C2CCN(C(=O)c3ccncn3)CC2)c(C(F)(F)F)c1
(3) COc1ccc(CC(N)C(=O)N2CCC(c3ccc(C(=O)NC(=N)N)cc3C(F)(F)F)CC2)cc1 (centres unmarked)
(4) N=C(N)NC(=O)c1ccc(C2CCN(C(=O)C3CCCCN3)CC2)c(C(F)(F)F)c1 (centres unmarked)
Order the records so the highest IC50 appears first and the lowest last. Answer by listing the labels in the order asked for.
1, 3, 2, 4
(1: 106 nM, 3: 37 nM, 2: 19 nM, 4: 9 nM)

(A) N=C(N)NC(=O)c1ccc(C2CCN(C(=O)C3CCCC3)CC2)c(C(F)(F)F)c1
(B) N=C(N)NC(=O)c1ccc(C2CCN(C(=O)C(N)Cc3cccs3)CC2)c(C(F)(F)F)c1 (centres unmarked)
(C) N=C(N)NC(=O)c1ccc(C2CCN(C(=O)c3ccc(F)cc3)CC2)c(C(F)(F)F)c1
Arrange items by their IC50 values in increasing order. // rank by listing labels in the order requested
B, A, C

(P) N=C(N)NC(=O)c1ccc(C2CCN(C(=O)Cc3cccnc3)CC2)c(C(F)(F)F)c1
(Q) Cc1cc(C2CCN(C(=O)c3ccc4c(c3)CCC(=O)N4)CC2)c(C(F)(F)F)cc1C(=O)NC(=N)N
(R) N=C(N)NC(=O)c1ccc(C2CCN(C(=O)c3ccccc3F)CC2)c(C(F)(F)F)c1
(S) Cc1cc(C2CCN(C(=O)CN(C)C)CC2)c(C(F)(F)F)cc1C(=O)NC(=N)N
Sort the compounds on IC50; start with the lowest figure. Please respond by ranking the labels in the order requested.
S, P, Q, R
